So I've got IC50 readings for Cytochrome P450 2C9 (Homo sapiens), take a look.
Value type: IC50

[[record]]
smiles_structure = "COc1c(-c2ccc3c(c2)OCO3)oc2c(ccc3occc32)c1=O"
value_type = "IC50"
measured_result = "> 20 µM"

[[record]]
smiles_structure = "O=c1cc(-c2ccccc2)oc2c1ccc1occc12"
value_type = "IC50"
measured_result = "> 20 µM"


---

Study system: Cytochrome P450 1A1 (Homo sapiens, UniProt P04798)
Sequence (P04798 whole entry): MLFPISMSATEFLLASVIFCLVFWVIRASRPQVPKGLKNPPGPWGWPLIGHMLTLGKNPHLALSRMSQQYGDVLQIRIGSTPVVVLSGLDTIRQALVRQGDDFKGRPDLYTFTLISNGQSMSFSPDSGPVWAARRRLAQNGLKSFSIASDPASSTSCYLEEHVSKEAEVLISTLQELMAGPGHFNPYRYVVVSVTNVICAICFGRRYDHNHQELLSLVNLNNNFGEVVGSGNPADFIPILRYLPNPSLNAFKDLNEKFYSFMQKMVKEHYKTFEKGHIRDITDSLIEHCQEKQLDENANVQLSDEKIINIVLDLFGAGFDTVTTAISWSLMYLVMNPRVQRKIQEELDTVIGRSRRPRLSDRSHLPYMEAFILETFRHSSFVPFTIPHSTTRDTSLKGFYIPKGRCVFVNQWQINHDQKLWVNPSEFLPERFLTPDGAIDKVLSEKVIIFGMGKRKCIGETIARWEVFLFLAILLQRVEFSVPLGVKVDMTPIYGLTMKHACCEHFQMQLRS
Test: Inhibition of human CYP1A1 expressed in HEK293 cells assessed as reduction in CYP1A1 mediated […] induced-toxicity by measuring EC50 at 3 times of IC50 concentration by MTT assay relative to control
Type: cell-based
Set-up: scale not given: the % may be the effect or the level left
List of Activity values.
Value type: Activity (%)

[[record]]
compound = "COc1c(-c2ccc3c(c2)OCO3)oc2c(ccc3occc32)c1=O [PONGAPIN]"
study_system = "Cytochrome P450 1A1 (Homo sapiens, UniProt P04798)"
value_type = "Activity"
endpoint_unit = "%"
measured_result = 100

[[record]]
compound = "O=c1cc(-c2ccccc2)oc2c1ccc1occc12 [LANCEOLATIN B]"
study_system = "Cytochrome P450 1A1 (Homo sapiens, UniProt P04798)"
value_type = "Activity"
endpoint_unit = "%"
measured_result = 100

[[record]]
compound = "COc1c(-c2cc(-c3ccccc3)n(-c3ccc(C#N)cc3)n2)ccc2occc12"
study_system = "Cytochrome P450 1A1 (Homo sapiens, UniProt P04798)"
value_type = "Activity"
endpoint_unit = "%"
measured_result = 91

[[record]]
compound = "COc1c(C(=O)/C=C(\\O)c2ccccc2)ccc2occc12 [PONGAMOL]"
study_system = "Cytochrome P450 1A1 (Homo sapiens, UniProt P04798)"
value_type = "Activity"
endpoint_unit = "%"
measured_result = 73


---

Study system: CYP1A1 (Homo sapiens)
Test: Inhibition of human CYP1A1 expressed in sacchrosomes at 10 uM using 7-ethoxyresorufin as substrate by fluorescence based assay relative to control
Condition context: sacchrosomes expressing human CYP1A1, probe 7-ethoxyresorufin
Attribute: inhibition at 10 µM
Value type: inhibition at 10 µM

[[record]]
smiles_structure = "COc1c(-c2cc(-c3ccccc3)nn2-c2ccccc2[N+](=O)[O-])ccc2occc12"
measured_result = "31.6%"

[[record]]
smiles_structure = "COc1c(-c2cc(-c3ccccc3)nn2-c2ccc(C#N)cc2)ccc2occc12"
measured_result = "> 70%"

[[record]]
smiles_structure = "COc1c(-c2cc(-c3ccccc3)n(-c3ccc(C#N)cc3)n2)ccc2occc12"
measured_result = "> 70%"


Origin of values: ChEMBL document CHEMBL4673221
